- System: S180-bearing mice
- ASSAY_NAME: Bio-distribution in tumor-bearing mice
- Type: in vivo
- CONDITION_INFO: S180-bearing mice, tail vein, 120 min

>  <MOLECULE>
O=C(CC[N+]#[C][99Tc-5]([C]#[N+]CCC(=O)NC1C(O)OC(CO)C(O)C1O)([C]#[N+]CCC(=O)NC1C(O)OC(CO)C(O)C1O)([C]#[N+]CCC(=O)NC1C(O)OC(CO)C(O)C1O)([C]#[N+]CCC(=O)NC1C(O)OC(CO)C(O)C1O)[C]#[N+]CCC(=O)NC1C(O)OC(CO)C(O)C1O)NC1C(O)OC(CO)C(O)C1O (stereo not shown) [[^99mTc-(CN2DG)6]^+]

>  <OUTPUT_UNIT>
% ID/g

>  <Tumor uptake>
0.25

$$$$

###

- Tested on: S180-bearing mice
- ASSAY_NAME: Bio-distribution in tumor-bearing mice
- Type: in vivo
- CONDITION_INFO: S180-bearing mice, tail vein, 120 min
Examples of compounds with documented Stomach uptake follow.
ATTRIBUTE_MEASURED: Stomach uptake (% ID/g)

>  <COMPOUND>
O=C(CCC[N+]#[C][99Tc-5]([C]#[N+]CCCC(=O)NC1C(O)OC(CO)C(O)C1O)([C]#[N+]CCCC(=O)NC1C(O)OC(CO)C(O)C1O)([C]#[N+]CCCC(=O)NC1C(O)OC(CO)C(O)C1O)([C]#[N+]CCCC(=O)NC1C(O)OC(CO)C(O)C1O)[C]#[N+]CCCC(=O)NC1C(O)OC(CO)C(O)C1O)NC1C(O)OC(CO)C(O)C1O (stereo not shown) [[^99mTc-(CN3DG)6]^+]

>  <VALUE_MEASURED>
0.31

$$$$
>  <COMPOUND>
O=C(CCCCC[N+]#[C][99Tc-5]([C]#[N+]CCCCCC(=O)NC1C(O)OC(CO)C(O)C1O)([C]#[N+]CCCCCC(=O)NC1C(O)OC(CO)C(O)C1O)([C]#[N+]CCCCCC(=O)NC1C(O)OC(CO)C(O)C1O)([C]#[N+]CCCCCC(=O)NC1C(O)OC(CO)C(O)C1O)[C]#[N+]CCCCCC(=O)NC1C(O)OC(CO)C(O)C1O)NC1C(O)OC(CO)C(O)C1O (stereo not shown) [[^99mTc-(CN5DG)6]^+]

>  <VALUE_MEASURED>
0.35

$$$$
>  <COMPOUND>
O=C(CC[N+]#[C][99Tc-5]([C]#[N+]CCC(=O)NC1C(O)OC(CO)C(O)C1O)([C]#[N+]CCC(=O)NC1C(O)OC(CO)C(O)C1O)([C]#[N+]CCC(=O)NC1C(O)OC(CO)C(O)C1O)([C]#[N+]CCC(=O)NC1C(O)OC(CO)C(O)C1O)[C]#[N+]CCC(=O)NC1C(O)OC(CO)C(O)C1O)NC1C(O)OC(CO)C(O)C1O (stereo not shown) [[^99mTc-(CN2DG)6]^+]

>  <VALUE_MEASURED>
0.15

$$$$
>  <COMPOUND>
O=C(CCCC[N+]#[C][99Tc-5]([C]#[N+]CCCCC(=O)NC1C(O)OC(CO)C(O)C1O)([C]#[N+]CCCCC(=O)NC1C(O)OC(CO)C(O)C1O)([C]#[N+]CCCCC(=O)NC1C(O)OC(CO)C(O)C1O)([C]#[N+]CCCCC(=O)NC1C(O)OC(CO)C(O)C1O)[C]#[N+]CCCCC(=O)NC1C(O)OC(CO)C(O)C1O)NC1C(O)OC(CO)C(O)C1O (stereo not shown) [[^99mTc-(CN4DG)6]^+]

>  <VALUE_MEASURED>
0.08

$$$$

All figures here come from patent US11628228B2.
